Entries and their IC50 values follow.
biological target: SIK2 (Homo sapiens); assay: SIK2 Enzymatic Assay Version 1 (ADP Glo); assay type: biochemical; conditions: enzyme 0.6 nM, 160 μM ATP and 140 μM HDAC5tide (each 2× final concentration); 30 minutes pre-incubation, 4 hours; ADPGlo luminescence; read-out: SIK2 ADP Glo IC50 (μM) (Test Example 1)
Express the result in µM but write the number alone.

These recorded examples may help you get a feel for the data.
N#Cc1cc(-c2ccn3nc(NC(=O)C4CC4)cc3c2)c(O[C@H]2CCN[C@@H](C(F)(F)F)C2)cn1 (single isomer, unassigned): 0.0249
N#Cc1cc(-c2ccn3nc(NC(=O)C4CC4)cc3c2)c(OC2C[C@H]3COC[C@@H](C2)N3)cn1 (stereo partly shown): 0.00013
Cc1cc(-c2ccn3nc(Nc4ccccn4)cc3c2)c(OC2CN(C)C2)cn1: 0.00757

Next molecule, please.
Log: SIK2 (Homo sapiens), molecule `N#Cc1cc(-c2ccn3nc(NC(=O)C4CC4)cc3c2)c(O[C@H]2CC[C@H](O)CC2)cn1` , IC50 = 0.000387

---

Entries and their log10 IC50 values follow.
molecular target: UniProtKB Q9H0K1; assay: SIK2 Enzymatic Assay High Version 2 (High ATP); assay type: biochemical; details: enzyme 6 nM, 6 mM ATP and 400 μM HDAC5tide (each 2× final concentration); 30 minutes pre-incubation, 2 hours; ADP-Glo Max luminescence; read-out: SIK2 high ATP IC50 (μM) (Test Example 2)
The common logarithm of IC50 in µM is what is listed.

These recorded examples may help you get a feel for the data.
Cc1cc(Nc2cc3cc(-c4cc(OC(F)F)ncc4OCC(C)(C)C#N)ccn3n2)nc(C(C)(C)C)n1 [Example 703]: -1.16
Cc1cc(-c2cn3cc(NC(=O)C4CC4)nc3cn2)c(O[C@H]2CC[C@@H](O)CC2)cn1 [Example 655]: -1.03
CC#Cc1cc(-c2ccn3nc(Nc4ccn(C)n4)cc3c2)c(O[C@H]2CC[C@H](O)CC2)cn1 [Example 187]: -2.39
Cc1cc(-c2ccn3nc(Nc4cc(C)nc(C)n4)cc3c2)c(OC[C@@](C)(O)C(F)(F)F)cn1 (single isomer, unassigned) [Example 264]: -1.46
Cc1cc(-c2ccn3nc(Nc4ccc(S(=O)(=O)N(C)C)cc4)cc3c2)c(O[C@H]2CC[C@H](O)CC2)cn1 [Example 324]: -1.48
Cc1cc(-c2ccn3nc(Nc4cnccn4)cc3c2)c(OC[C@H]2CN(C)CCO2)cn1 [Example 611]: -0.94
Cc1cc(-c2ccn3nc(Nc4ccn(C(C)C)n4)cc3c2)c(OC[C@@H]2CNCCO2)cn1 [Example 135]: -2.01
Cc1cc(-c2ccn3nc(Nc4cc(C)nc(C)n4)cc3c2)c(OCc2ccccc2OC(F)F)cn1 [Example 553]: -2.00

Log: UniProtKB Q9H0K1, molecule CC(C)(C#N)COc1cnc(OCC#N)cc1-c1ccn2nc(NC(=O)C3CC3)cc2c1 [Example 724] , log10 IC50 = -1.81

Log: UniProtKB Q9H0K1, molecule CNc1nc(C)cc(Nc2cc3cc(-c4cc(Cl)ncc4OCC(C)(C)C#N)ccn3n2)n1 [Example 675] , log10 IC50 = -1.41

Log: UniProtKB Q9H0K1, molecule N#CCN1CC[C@@H](COc2cnc(C#N)cc2-c2ccn3nc(NC(=O)C4CC4)cc3c2)C1 [Example 563] , log10 IC50 = -1.42

Log: UniProtKB Q9H0K1, molecule Cc1cc(-c2ccn3nc(Nc4cc(C)nc(C)n4)cc3c2)c(O[C@H]2C[C@H](N)C2)cn1 [Example 545] , log10 IC50 = -1.87

Log: UniProtKB Q9H0K1, molecule Cc1cc(Nc2cc3cc(-c4cc(OC(F)F)ncc4OC[C@@H]4CC(=O)NC4(C)C)ccn3n2)nc(C)n1 (single isomer, unassigned) [Example 738] , log10 IC50 = -2.52

Log: UniProtKB Q9H0K1, molecule Cc1cc(-c2ccn3nc(Nc4cc(C)nc(C(=O)NC5CC5)n4)cc3c2)c(OCC(C)(C)O)cn1 [Example 640] , log10 IC50 = -1.53

---

target: UniProtKB Q9H0K1; assay: SIK2 Enzymatic Assay High Version 2 (High ATP); type: biochemical
Measurement Name: IC50 (nM)
Express the result in nM but write the number alone.

These recorded examples may help you get a feel for the data.
Cc1cc(-c2ccn3nc(NC(=O)[C@@H]4C[C@H]4C)cc3c2)c(O[C@@H]2[C@@H]3CO[C@H]2CN3)cn1 [Example 463]: 10.7
Cc1cc(-c2ccn3nc(Nc4ccc(=O)n(C)n4)cc3c2)c(O[C@H]2C[C@H]3COC[C@@H](C2)N3)cn1 [Example 401]: 16.1
Cc1cc(-c2ccn3nc(Nc4cc(C(F)(F)F)nn4C)cc3c2)c(O[C@H]2C[C@H]3COC[C@@H](C2)N3)cn1 [Example 403]: 14.3

Log: UniProtKB Q9H0K1, molecule CC1(C)CC(Oc2cnc(C#N)cc2-c2ccn3nc(NC(=O)C4CC4)cc3c2)CC(C)(C)N1 [Example 93] , IC50 = 1250

---

target: SIK2 (Homo sapiens, UniProt Q9H0K1); assay: SIK2 Enzymatic Assay High Version 2 (High ATP); type: biochemical
Sequence (Q9H0K1 whole entry, species assumed): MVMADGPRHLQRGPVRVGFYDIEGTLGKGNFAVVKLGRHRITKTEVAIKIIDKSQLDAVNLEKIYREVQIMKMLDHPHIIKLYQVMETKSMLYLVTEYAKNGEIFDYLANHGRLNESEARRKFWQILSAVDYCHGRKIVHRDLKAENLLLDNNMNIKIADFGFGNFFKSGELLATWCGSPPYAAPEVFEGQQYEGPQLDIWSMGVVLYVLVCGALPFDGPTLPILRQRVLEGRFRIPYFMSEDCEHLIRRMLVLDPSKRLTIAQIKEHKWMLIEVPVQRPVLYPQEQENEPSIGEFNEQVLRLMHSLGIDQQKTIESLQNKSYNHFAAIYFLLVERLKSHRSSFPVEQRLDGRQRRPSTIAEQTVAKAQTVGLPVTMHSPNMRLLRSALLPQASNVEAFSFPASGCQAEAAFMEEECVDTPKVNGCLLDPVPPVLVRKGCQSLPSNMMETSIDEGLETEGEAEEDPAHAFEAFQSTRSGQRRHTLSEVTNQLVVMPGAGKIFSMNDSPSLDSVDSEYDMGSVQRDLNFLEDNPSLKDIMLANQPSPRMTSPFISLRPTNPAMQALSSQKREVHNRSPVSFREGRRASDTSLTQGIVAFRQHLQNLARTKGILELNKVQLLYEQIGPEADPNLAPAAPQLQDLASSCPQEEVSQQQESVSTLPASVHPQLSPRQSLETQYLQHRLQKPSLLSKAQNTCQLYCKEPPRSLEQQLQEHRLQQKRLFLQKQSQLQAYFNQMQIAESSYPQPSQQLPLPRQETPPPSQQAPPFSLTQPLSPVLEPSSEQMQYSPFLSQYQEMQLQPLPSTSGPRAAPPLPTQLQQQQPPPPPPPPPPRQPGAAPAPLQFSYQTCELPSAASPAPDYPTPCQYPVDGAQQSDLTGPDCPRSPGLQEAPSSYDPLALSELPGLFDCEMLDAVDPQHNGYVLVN
Measurement Name: IC50 (nM)
Express the result in nM but write the number alone.

These recorded examples may help you get a feel for the data.
Cc1cc(-c2ccn3nc(NC(=O)C4CC4(F)F)cc3c2)c(OC[C@H]2CCN2C)cn1 (some centres unmarked): 3.29
Cc1cnc(Nc2cn3cc(-c4cc(C)ncc4O[C@H]4C[C@H]5COC[C@@H](C4)N5)ncc3n2)cn1: 1.02
CC(C)(O)COc1cnc(C#N)cc1-c1ccn2nc(NC(=O)C3CC3)cc2c1: 31.8
Cc1cc(-c2ccn3nc(NC(=O)C4CC4)cc3c2)c(O[C@@H]2CC[C@H](N)C2)cn1: 70.1
Cc1cc(-c2ccn3nc(NC(=O)C4CC4)cc3c2)c(O[C@@H]2CNC[C@H](C(F)(F)F)C2)cn1 (single isomer, unassigned): 11.6
Cc1cc(-c2ccn3nc(NC(=O)C4CC4)cc3c2)c(OCC2(N)CC(F)(F)C2)cn1: 16.4
CC[C@@H]1NC[C@@H]1Oc1cnc(C)cc1-c1ccn2nc(NC(=O)C3CC3)cc2c1 (relative stereo): 33.4
Cc1cc(-c2ccn3nc(Nc4cn(C)nc4F)cc3c2)c(O[C@H]2C[C@H]3COC[C@@H](C2)N3C)cn1 [Example 119]: 1.27
CCNC(=O)c1ccc(Nc2cc3cc(-c4cc(C)ncc4O[C@H]4C[C@H]5COC[C@@H](C4)N5)ccn3n2)nc1: 0.889
Cc1cc(-c2ccn3nc(NC(=O)C4CC4)cc3c2)c(OCC2(N)CCC2)cn1: 24

Lab book: IC50 of `Cc1cc(-c2ccn3nc(Nc4cnn(C)c4)cc3c2)c(OC2CN(C)C2)cn1` noted as 93.3

---

Entries and their IC50 values follow.
Molecular target: UniProt:Q9H0K1
Experiment: SIK2 Enzymatic Assay High Version 2 (High ATP)
Assay type: biochemical
Details: enzyme 6 nM, 6 mM ATP and 400 μM HDAC5tide (each 2× final concentration); 30 minutes pre-incubation, 2 hours; ADP-Glo Max luminescence; read-out: SIK2 high ATP IC50 (μM) (Test Example 2)
Experimental: All steps were performed at room temperature. Compounds were pre-plated onto an assay plate using an Echo acoustic dispenser (Labcyte, E550 or E555) at 80 nL per well. […] The plate is then read on the Pherastar (BMG Labtech) using a luminescence read. […]
Express the result in µM but write the number alone.

These recorded examples may help you get a feel for the data.
Cc1cc(-c2ccn3nc(NC(=O)C4CC4)cc3c2)c(OC[C@]2(C#N)CCN(C)C2)cn1 (single isomer, unassigned) [Example 213]: 0.0505
Cc1cc(-c2ccn3nc(NC(=O)C4CC4)cc3c2)c(OCC2(O)CCNC2)cn1 (single isomer, unassigned) [Example 222]: 0.0119
CO[C@H]1CNC[C@@H]1COc1cnc(C)cc1-c1ccn2nc(NC(=O)C3CC3)cc2c1 (relative stereo) [Example 458]: 0.00555

Lab book: IC50 of Cc1cc(-c2ccn3nc(Nc4cccnn4)cc3c2)c(O[C@H]2C[C@H](N)C2)cn1 [Example 520] noted as 0.0445

Lab book: IC50 of Cc1ccc(Nc2cc3cc(-c4cc(OC(F)F)ncc4OCC(C)(C)C#N)ccn3n2)nn1 [Example 711] noted as 0.01

Lab book: IC50 of Cc1cc(-c2ccn3nc(Nc4cc(C)nc(C)n4)cc3c2)c(O[C@H]2CC[C@H](C#N)CC2)cn1 [Example 581] noted as 0.0838

---

Entries and their IC50 values follow.
target: SIK2 (Homo sapiens, UniProt Q9H0K1); assay: SIK2 Enzymatic Assay High Version 2 (High ATP); assay type: biochemical; details: enzyme 6 nM, 6 mM ATP and 400 μM HDAC5tide (each 2× final concentration); 30 minutes pre-incubation, 2 hours; ADP-Glo Max luminescence; read-out: SIK2 high ATP IC50 (μM) (Test Example 2)
Express the result in µM but write the number alone.

Lab book: IC50 of Cc1cc(-c2ccn3nc(Nc4cnn(C)c4)cc3c2)c(OC[C@@H]2CNCCO2)cn1 [Example 128] noted as 0.0249

Lab book: IC50 of Cc1cc(-c2ccn3nc(Nc4cc(C)c(C(=O)NC5CC5)c(C)n4)cc3c2)c(OCC(C)(C)O)cn1 [Example 335] noted as 0.0233

Lab book: IC50 of Cc1cc(Nc2cc3cc(-c4cc(C)ncc4OCC(C)(C)O)ccn3n2)nc(C(=O)NC2CC2)c1 [Example 638] noted as 0.149

Lab book: IC50 of CNc1nc(C)cc(Nc2cc3cc(-c4cc(OCC(F)F)ncc4OCC(C)(C)C#N)ccn3n2)n1 [Example 725] noted as 0.00405
